Cited source: patent US20260365671A1

Entries and their log10(IC50) values follow.
MEASURED TARGET: NLRP3 inflammasome (Homo sapiens, UniProt Q96P20)
Construct: IL-1beta HTRF
Sequence (Q96P20 whole entry): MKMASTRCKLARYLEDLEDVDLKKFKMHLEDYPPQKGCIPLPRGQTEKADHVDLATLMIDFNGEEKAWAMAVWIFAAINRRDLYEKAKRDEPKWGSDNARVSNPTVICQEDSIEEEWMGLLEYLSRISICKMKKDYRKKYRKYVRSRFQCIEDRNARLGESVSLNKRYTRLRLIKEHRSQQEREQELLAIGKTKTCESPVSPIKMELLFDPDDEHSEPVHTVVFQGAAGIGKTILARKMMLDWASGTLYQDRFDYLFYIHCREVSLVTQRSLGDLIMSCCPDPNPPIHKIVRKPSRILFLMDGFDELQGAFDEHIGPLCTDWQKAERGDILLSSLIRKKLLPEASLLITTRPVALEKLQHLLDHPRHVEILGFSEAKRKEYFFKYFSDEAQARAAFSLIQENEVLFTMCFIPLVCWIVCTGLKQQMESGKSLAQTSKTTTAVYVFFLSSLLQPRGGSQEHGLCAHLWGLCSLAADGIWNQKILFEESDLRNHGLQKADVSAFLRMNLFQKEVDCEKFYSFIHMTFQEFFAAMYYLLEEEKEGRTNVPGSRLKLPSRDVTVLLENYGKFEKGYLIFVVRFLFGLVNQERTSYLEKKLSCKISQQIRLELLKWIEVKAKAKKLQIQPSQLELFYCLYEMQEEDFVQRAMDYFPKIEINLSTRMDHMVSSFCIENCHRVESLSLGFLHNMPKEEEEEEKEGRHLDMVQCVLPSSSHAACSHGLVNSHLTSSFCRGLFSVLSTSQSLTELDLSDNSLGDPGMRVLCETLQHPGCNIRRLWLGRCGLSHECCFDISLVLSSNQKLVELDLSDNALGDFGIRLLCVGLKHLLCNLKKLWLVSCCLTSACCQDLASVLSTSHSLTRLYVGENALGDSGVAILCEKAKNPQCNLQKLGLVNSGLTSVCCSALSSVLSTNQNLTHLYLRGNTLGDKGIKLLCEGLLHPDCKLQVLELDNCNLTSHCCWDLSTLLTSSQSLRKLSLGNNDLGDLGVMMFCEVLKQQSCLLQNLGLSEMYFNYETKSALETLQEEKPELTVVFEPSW
METHOD: IL-1β TR-FRET assay (THP-1 cells differentiated to macrophages with IFN-γ, LPS primed, ATP activated; HTRF)
RUN CONDITIONS: THP-1 macrophages, 50 ng/mL LPS priming, compound 30 min, 20 mM ATP 2 hours
Record value = log10 of IC50 given in nM.

Worked examples, 4 molecules total:
MOLECULE	MEASURED TARGET	ASSAY METRIC	MEASURED
CCC(=O)N1CCC(Nc2nc3nn(-c4c(C)cc(C)cc4O)cc3s2)CC1 [Example 132]	NLRP3 inflammasome (Homo sapiens, UniProt Q96P20)	log10(IC50)	3.00
CCc1cc(C)cc(O)c1-n1cc2sc(N[C@@H]3C[C@@H](F)CN(C)C3)nc2n1 [Example 20]	NLRP3 inflammasome (Homo sapiens, UniProt Q96P20)	log10(IC50)	0.96
Cc1cc(C)c(-n2cc3sc(NC(C)C(C)O)nc3n2)c(O)c1 (centres unmarked) [Example 140]	NLRP3 inflammasome (Homo sapiens, UniProt Q96P20)	log10(IC50)	2.60
CO[C@H]1C[C@@H](Nc2nc3nn(-c4c(C)cc(C)cc4O)cc3s2)CN(C)C1 [Example 19]	NLRP3 inflammasome (Homo sapiens, UniProt Q96P20)	log10(IC50)	3.73

Now consider the entry below.
Request: Give its log10(IC50) value. Item: Cc1cc(C)c(-n2cc3sc(NC4(C(F)F)CC4)nc3n2)c(O)c1 [Example 147]
Result: 2.92
